Entry source: patent US20100029615A1

# SYSTEM_UNDER_TEST: SMO (Mus musculus, UniProt P56726)
# Construct: endogenous in cells; host or cells: C3H10T1/2 (ATCC #CCL-226)
# Sequence (P56726 33-793): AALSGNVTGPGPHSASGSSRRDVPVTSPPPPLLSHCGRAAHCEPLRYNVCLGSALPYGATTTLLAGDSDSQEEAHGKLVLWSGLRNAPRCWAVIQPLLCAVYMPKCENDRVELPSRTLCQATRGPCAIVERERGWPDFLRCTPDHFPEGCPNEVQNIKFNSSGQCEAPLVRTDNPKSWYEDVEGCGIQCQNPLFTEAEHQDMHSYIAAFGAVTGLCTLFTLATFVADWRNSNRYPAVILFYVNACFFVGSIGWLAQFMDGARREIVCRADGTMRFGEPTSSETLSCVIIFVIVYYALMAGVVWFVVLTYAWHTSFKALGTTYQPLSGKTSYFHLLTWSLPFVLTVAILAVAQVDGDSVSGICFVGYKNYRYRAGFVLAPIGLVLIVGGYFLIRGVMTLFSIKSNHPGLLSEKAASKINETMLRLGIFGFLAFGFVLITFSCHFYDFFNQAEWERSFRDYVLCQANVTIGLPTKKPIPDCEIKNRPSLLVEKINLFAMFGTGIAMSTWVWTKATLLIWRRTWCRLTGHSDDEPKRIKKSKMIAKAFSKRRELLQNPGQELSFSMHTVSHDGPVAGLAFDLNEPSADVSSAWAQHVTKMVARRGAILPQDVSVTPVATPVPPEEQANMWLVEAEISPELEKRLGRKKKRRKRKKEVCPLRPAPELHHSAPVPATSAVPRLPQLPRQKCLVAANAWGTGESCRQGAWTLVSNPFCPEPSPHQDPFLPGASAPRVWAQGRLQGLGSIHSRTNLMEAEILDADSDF
# TEST_NAME: Smoothened (SMO)/Sonic Hedgehog (SHh) Transient Transcriptional Activation Assay (Gli-luciferase reporter in C3H10T1/2 cells)
# Type: cell-based, murine
# EXPERIMENTAL_CONDITIONS: C3H 10T1/2, 2 μM test compound, SHh 250 ng/ml, 20 hrs, read-out: SMO CELL % INHIBITION @ 2 μM
Counter-ions that a name gives are not always drawn.
QUANTITY: inhibition at 2 µM (%)

O=C(N[C@@H]1CCCC(c2nc3ccccc3[nH]2)C1)c1ccc2c(c1)OC(F)(F)O2 (some centres unmarked) [Example 251] : 102
COc1cccc2c1OCC(C(=O)NC1CCCC(c3nc4ccccc4[nH]3)C1)C2 (centres unmarked) [Example 133] : 85
[N-]=[N+]=Nc1ccc(C(=O)NC23CCCC(c4nc5ccccc5[nH]4)(C2)C3)cc1 [Example 277] : 82.3
CC(C(=O)NC1CCCC(c2nc3ccccc3[nH]2)C1)n1cccn1 (centres unmarked) [Example 142] : 69
O=C(N[C@@H]1CCC[C@H](c2nc3ccccc3[nH]2)C1)c1ccc2oc(=O)[nH]c2c1 [Example 213] : 73

1: COc1ccc2nc([C@H]3CCC[C@@H](NC(=O)c4ccc5c(c4)OCCO5)C3)[nH]c2c1 [Example 180, HCl]
2: Cn1c(C23CCCC(NC(=O)c4ccc5c(c4)OCCO5)(C2)C3)nc2ccccc21 [Example 244]
Exercise: // compare measured inhibition at 2 µM, left 1 , right 2 , return larger State the label of the item chosen.
Key: 1
